Data origin: patent US20190144535A1

- assayed.target: T1, mouse IL-1β (mouse, UniProt P10749 118-269)
- T1 construct: also called murine IL-1β
- test.name: ProteOn bioanalyzer (BioRad)
measured.parameter: Kd (nM)
Quick note: give the figure in nM, leave out the unit.

P1H8 (antibody, V domains shown, also called matured Ig P1H8) VH: QVQLQQWGAGLLKPSETLSLTCAVYGGSFSDYYWSWIRQPPGKGLEWIGEIDHSGSTNYNPSLKSRVTISVDTSRNQFSLSLSSVTAADTAVYYCARASPSSGWTLDYWGQGTLVTVSS VL: QSVLTQPPSVSVSPGQTASITCSGDKLGDKFAFWYQQKPGQSPVLVIYLDNKRPSGIPERFSGSNSGNTATLTISGTQALDEADYYCQAWADSFEVFGGGTKLTVLG | 0.0489

INPUT: Any idea what its Kd is? The binder is IgG1 2H (antibody, V domains shown, also called IgG 2H; IgG clone 2H) VH: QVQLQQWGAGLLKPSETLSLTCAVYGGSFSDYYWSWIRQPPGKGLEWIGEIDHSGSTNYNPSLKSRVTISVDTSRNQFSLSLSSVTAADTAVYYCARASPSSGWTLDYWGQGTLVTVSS VL: QSVLTQPPSVSVSPGQTASITCSGDKLGDKFAFWYQQKPGQSPVLVIYLDNKRPSGIPERFSGSNSGNTATLTISGTQALDEADYYCQAWDSNIEVFGGGTKLTVLG
OUTPUT: 0.142

INPUT: Lookup P2D8 (antibody, V domains shown, also called matured Ig P2D8) VH: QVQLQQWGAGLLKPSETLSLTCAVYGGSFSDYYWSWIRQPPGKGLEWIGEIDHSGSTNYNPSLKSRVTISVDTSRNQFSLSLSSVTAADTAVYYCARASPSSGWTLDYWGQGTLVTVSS VL: QSVLTQPPSVSVSPGQTASITCSGDKLGDKFAFWYQQKPGQSPVLVIYLDNKRPSGIPERFSGSNSGNTATLTISGTQALDEADYYCEAWADTYEVFGGGTKLTVLG
OUTPUT: 0.0166

INPUT: Lookup P2D7 (antibody, V domains shown, claim 45 pairs 17 with 14); also called matured Ig P2D7) VH: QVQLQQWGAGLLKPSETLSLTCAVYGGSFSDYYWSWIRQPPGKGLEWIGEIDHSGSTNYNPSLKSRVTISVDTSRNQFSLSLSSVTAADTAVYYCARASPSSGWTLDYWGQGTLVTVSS VL: QSVLTQPPSVSVSPGQTASITCSGDKLGDKFAFWYQQKPGQSPVLVIYLDNKRPSGIPERFSGSNSGNTATLTISGTQALDEADYYCYAWADTYEVFGGGTK
OUTPUT: 0.0109
